molecular target: B-RAF G466V (Homo sapiens, UniProt P15056, G466V); construct: expressed in transfected cells; host or cells: T-Rex 293 cells (Invitrogen #R71007); experiment: Target protein degradation, assay D: T-Rex 293 cells, HA-BRAF_G466V, 384 well format; assay type: cell-based; details: Assay D, T-Rex 293 HA-BRAF_G466V cells, 24 hours, Examples 83-269
Sequence (P15056 whole entry G466V): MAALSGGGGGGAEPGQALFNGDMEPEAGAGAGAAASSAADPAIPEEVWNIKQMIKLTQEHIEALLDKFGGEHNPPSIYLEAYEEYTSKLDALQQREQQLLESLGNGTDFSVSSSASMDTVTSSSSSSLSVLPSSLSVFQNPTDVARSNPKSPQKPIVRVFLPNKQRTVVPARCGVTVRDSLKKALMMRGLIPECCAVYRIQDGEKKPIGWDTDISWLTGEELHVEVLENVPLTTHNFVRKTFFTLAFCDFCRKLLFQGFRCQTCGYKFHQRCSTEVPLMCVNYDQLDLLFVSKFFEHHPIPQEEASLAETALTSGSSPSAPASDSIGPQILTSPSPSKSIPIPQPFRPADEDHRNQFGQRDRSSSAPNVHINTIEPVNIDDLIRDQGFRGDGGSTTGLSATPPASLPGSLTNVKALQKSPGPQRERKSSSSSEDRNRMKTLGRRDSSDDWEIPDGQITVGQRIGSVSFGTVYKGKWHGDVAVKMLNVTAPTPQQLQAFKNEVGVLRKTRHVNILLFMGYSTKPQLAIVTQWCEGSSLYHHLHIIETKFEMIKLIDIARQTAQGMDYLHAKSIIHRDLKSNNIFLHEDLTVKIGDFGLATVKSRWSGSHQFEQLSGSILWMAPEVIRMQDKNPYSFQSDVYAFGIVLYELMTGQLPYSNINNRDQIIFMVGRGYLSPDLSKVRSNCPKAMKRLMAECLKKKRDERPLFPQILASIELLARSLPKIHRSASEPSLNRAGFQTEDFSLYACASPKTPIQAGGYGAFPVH
Value Type: DC50

Per the records, this compound ( N#Cc1c(NS(=O)(=O)N2CC[C@@H](F)C2)ccc(F)c1Oc1ccc2ncn(-c3ccc(C4CCN(CC5CC6(CCN(c7ccc8c(c7)CN([C@H]7CCC(=O)NC7=O)C8=O)CC6)C5)C4)cc3)c(=O)c2c1 (some centres unmarked) ) has DC50 equal to 0.001 to 0.01 µM

Per the records, this compound ( Cc1c(N2CCC(CN3CCN(c4ccc(-n5cnc6ccc(Oc7c(F)ccc(NS(=O)(=O)N8CC[C@@H](F)C8)c7C#N)cc6c5=O)cc4)CC3)CC2)ccc2c1CN(C1CCC(=O)NC1=O)C2=O (some centres unmarked) [Example 104] ) has DC50 equal to 0.001 to 0.01 µM

Per the records, this compound ( N#Cc1c(NS(=O)(=O)N2CC[C@@H](F)C2)ccc(F)c1Oc1ccc2ncn(-c3ccc(N4CCC(CN5CC6(CCN(c7ccc8c(c7)CN([C@H]7CCC(=O)NC7=O)C8=O)CC6)C5)CC4)cc3)c(=O)c2c1 ) has DC50 equal to 0.001 to 0.01 µM

Per the records, this compound ( N#Cc1c(NS(=O)(=O)N2CC[C@@H](F)C2)ccc(F)c1Oc1ccc2ncn(-c3ccc(N4CCN(CC5CCN(c6ccc7c(c6F)CN([C@H]6CCC(=O)NC6=O)C7=O)CC5)CC4)cn3)c(=O)c2c1 ) has DC50 equal to 0.001 to 0.01 µM

Per the records, this compound ( CC(C)(C1CCN(c2ccc(-n3cnc4ccc(Oc5c(F)ccc(NS(=O)(=O)N6CC[C@@H](F)C6)c5C#N)cc4c3=O)cc2)CC1)N1CCN(c2ccc3c(c2)CN([C@H]2CCC(=O)NC2=O)C3=O)CC1 ) has DC50 equal to 0.01 to 0.03 µM
